- Test method notes: Stability in fetal bovine serum assessed as drug degradation measured for 12 hrs by RP-HPLC analysis
- Assay type: ADME, cell-free, Bos taurus
- Experimental parameters: cattle, read-out: Drug degradation
Where a SMILES comes first, the peptide text is derived from it.
Measure name: metabolised at 12 h (%)
Numbers only, in %.

Challenge: What value of metabolised at 12 h has been reported for the following molecule? COC(=O)[C@H](CC(C)C)NC(=O)[C@H](CO)NC(=O)[C@@H](N)Cc1ccc(O)cc1 (H-Tyr-Ser-Leu-OMe)
Response given: 100

* * *

- Test method notes: Stability in fetal bovine serum assessed as parent compound remaining measured after 12 hrs by RP-HPLC analysis
- Format: ADME, cell-free, Bos taurus
- Experimental parameters: cattle, read-out: Stability
Where a SMILES comes first, the peptide text is derived from it. Side-chain parts run from the residue outwards.
Assign remaining at 12 h to each entry below.

COC(=O)[C@H](CCCCNC(=O)[C@H](CCCCNC(=O)[C@H](CC(C)C)NC(=O)[C@H](CO)NC(=O)[C@@H](N)Cc1ccc(O)cc1)NC(=O)[C@H](CC(C)C)NC(=O)[C@H](CO)NC(=O)[C@@H](N)Cc1ccc(O)cc1)NC(=O)[C@H](CCCCNC(=O)[C@H](CC(C)C)NC(=O)[C@H](CO)NC(=O)[C@@H](N)Cc1ccc(O)cc1)NC(=O)[C@H](CC(C)C)NC(=O)[C@H](CO)NC(=O)[C@@H](N)Cc1ccc(O)cc1; > 80%

Shifting focus to the compound that follows.
Challenge: // returns reported remaining at 12 h for input COC(=O)[C@H](CCCCNC(=O)[C@H](CC(C)C)NC(=O)[C@H](CO)NC(=O)[C@@H](N)Cc1ccc(O)cc1)NC(=O)[C@H](CC(C)C)NC(=O)[C@H](CO)NC(=O)[C@@H](N)Cc1ccc(O)cc1 (H-YSLK([Leu-Ser-Tyr])-OMe)
Response given: > 80%

These entries and their values trace back to ChEMBL document CHEMBL4406918.
